The values you see were collected from patent US8507724B2.

Assay: in vivo
Type: in vivo
Conditions: rat, plasma, iv, 2 mg/kg, i.v. administration, read-out: half life (converted)
propertyMeasured: half-life

Query block: Please look up its half-life: CC(C)c1cc(-c2ccc(Cl)cc2)cc(C(C)C)c1O
Result block: ~1.5 h

###

Target: α1 homomeric glycine receptors (Rattus norvegicus)
Construct: expressed in transfected cells; host or cells: HEK 293 (transient transfection by electroporation, cDNA in pCIS2 vector)
Sequence (P07727 29-457): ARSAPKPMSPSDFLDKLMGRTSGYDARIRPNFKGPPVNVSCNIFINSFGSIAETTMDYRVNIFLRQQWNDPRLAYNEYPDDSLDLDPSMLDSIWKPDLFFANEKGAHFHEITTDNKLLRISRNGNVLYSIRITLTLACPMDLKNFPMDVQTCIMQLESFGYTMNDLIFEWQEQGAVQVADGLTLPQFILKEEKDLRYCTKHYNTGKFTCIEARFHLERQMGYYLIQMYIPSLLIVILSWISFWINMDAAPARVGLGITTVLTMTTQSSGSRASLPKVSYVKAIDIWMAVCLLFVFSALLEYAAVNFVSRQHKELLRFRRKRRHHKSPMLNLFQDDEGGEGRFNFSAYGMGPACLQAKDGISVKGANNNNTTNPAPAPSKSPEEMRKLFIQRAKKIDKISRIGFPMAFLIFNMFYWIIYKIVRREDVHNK
Test: Whole-cell patch-clamp, Cl- current activated via α1 homomeric glycine receptors in transfected HEK 293 cells
Format: cell-based
Conditions: EC50, further series of tests (later tests)
propertyMeasured: EC50 (nM)
Hi! Could you send only the number? It should be in nM, unit omitted.

compound: CC(C)c1cc(-c2ccc(Cl)c(F)c2)cc(C(C)C)c1O
propertyMeasured: EC50
observedValue: 0.07

Query block: Please look up its EC50: CC(C)c1cc(NC(=O)C(F)(F)F)cc(C(C)C)c1O [4-trifluoroacetamide-propofol, 4-Trifluoroacetamide-propofol]
Result block: 0.11
